# Test system: VAL (B-Cell Non-Hodgkin's Lymphoma)
# assayName: combination Emax (second highest fraction inhibited in the dose matrix, 72 h); higher = more inhibition; extreme values may be limits of the assay
readout: combination Emax
Please state the value as a number alone, without comment.

Consider the worked cases shown below.
>>> numericreadout("Cn1cnc2c(F)c(Nc3ccc(Br)cc3Cl)c(C(=O)NOCCO)cc21 [Selumetinib] + CC(C)n1c(=O)n(C)c2cnc3cc(F)c(-c4ccc(OCCCN5CCCCC5)nc4)cc3c21 [AZD1390] (first compound max 10 µM, 7x7, partner max 0.3 µM)")
0.0806
>>> numericreadout("CN(CCO)CC[C@H](CSc1ccccc1)Nc1ccc(S(=O)(=O)NC(=O)c2ccc(N3CCC([C@@H](O)c4ccccc4-c4ccc(Cl)cc4)CC3)cc2)cc1S(=O)(=O)C(F)(F)F [AZD4320] + C1CN(CCC1(C(=O)N[C@@H](CCO)C2=CC=C(C=C2)Cl)N)C3=NC=NC4=C3C=CN4 [Capivasertib] (first compound max 1 µM, 7x7, partner max 3 µM)")
1
>>> numericreadout("COc1cccc(OCCCN)c1-c1cc(Nc2cnc(C#N)cn2)n[nH]1 [Prexasertib] + Cc1cc2ncnn2cc1Nc1ncc2c(n1)n(C1CCOCC1)c(=O)n2C [AZD7648] (first compound max 1 µM, 7x7, partner max 10 µM)")
0.932
>>> numericreadout("O=C(c1cc(Cc2n[nH]c(=O)c3ccccc23)ccc1F)N1CCN(C(=O)C2CC2)CC1 [Olaparib] + CN(CC[C@H](CSC1=CC=CC=C1)NC2=C(C=C(C=C2)S(=O)(=O)NC(=O)C3=CC=C(C=C3)N4CCC(CC4)[C@H](C5=CC=CC=C5C6=CC=C(C=C6)Cl)O)S(=O)(=O)C(F)(F)F)CCO [AZD4320] (first compound max 10 µM, 7x7, partner max 1 µM)")
1
>>> numericreadout("CC(=O)c1c(C)c2cnc(Nc3ccc(N4CCNCC4)cn3)nc2n(C2CCCC2)c1=O [Palbociclib] + CC1(C)CCC(CN2CCN(c3ccc(C(=O)NS(=O)(=O)c4ccc(NCC5CCOCC5)c([N+](=O)[O-])c4)c(Oc4cnc5[nH]ccc5c4)c3)CC2)=C(c2ccc(Cl)cc2)C1 [Venetoclax] (first compound max 10 µM, 7x7, partner max 1 µM)")
0.997

Which combination Emax value belongs to C[C@@H](c1ccc2nccn2c1)n1nnc2ncc(-c3cnn(C)c3)nc21 [Savolitinib] + Cc1c2c(nn1C)CSCc1cc(n(C)n1)CSc1cc(c3ccccc3c1)OCCCc1c(C(=O)O)n(C)c3c-2c(Cl)ccc13 [AZD5991] (first compound max 1 µM, 7x7, partner max 1 µM) ?
0.564

I'd like to know its combination Emax. The compound in question is CCN(CCO)CCCOc1ccc2c(Nc3cc(CC(=O)Nc4cccc(F)c4)[nH]n3)ncnc2c1 [AZD2811] + C=CCn1c(=O)c2cnc(Nc3ccc(N4CCN(C)CC4)cc3)nc2n1-c1cccc(C(C)(C)O)n1 [AZD1775] (first compound max 1 µM, partner max 1 µM)
0.844

Which combination Emax value belongs to C=CCn1c(=O)c2cnc(Nc3ccc(N4CCN(C)CC4)cc3)nc2n1-c1cccc(C(C)(C)O)n1 [AZD1775] + Nc1ccn([C@@H]2O[C@H](CO)[C@@H](O)C2(F)F)c(=O)n1 [Gemcitabine] (first compound max 1 µM, partner max 0.3 µM) ?
0.794

Need combination Emax of C[C@@H](Oc1cc(-c2cnn(C3CCNCC3)c2)cnc1N)c1c(Cl)ccc(F)c1Cl [Crizotinib] + Cn1cnc2c(F)c(Nc3ccc(Br)cc3Cl)c(C(=O)NOCCO)cc21 [Selumetinib] (first compound max 10 µM, 7x7, partner max 10 µM) , thanks.
0.758

Which combination Emax is reported for this compound? COc1cccc(OCCCN)c1-c1cc(Nc2cnc(C#N)cn2)n[nH]1 [Prexasertib] + C[C@@H]1COCCN1C2=NC(=NC(=C2)C3(CC3)[S@](=N)(=O)C)C4=C5C=CNC5=NC=C4 [AZD6738] (first compound max 1 µM, 7x7, partner max 10 µM)
0.952

I am curious: what combination Emax value has been reported for CCN(CCO)CCCOc1ccc2c(Nc3cc(CC(=O)Nc4cccc(F)c4)[nH]n3)ncnc2c1 [AZD2811] + C[C@@H]1COCCN1C2=NC(=NC(=C2)C3(CC3)[S@](=N)(=O)C)C4=C5C=CNC5=NC=C4 [AZD6738] (first compound max 1 µM, 7x7, partner max 10 µM) ?
0.877

Return reported combination Emax; argument: O=C(c1cc(Cc2n[nH]c(=O)c3ccccc23)ccc1F)N1CCN(C(=O)C2CC2)CC1 [Olaparib] + Cc1c2c(nn1C)CSCc1cc(n(C)n1)CSc1cc(c3ccccc3c1)OCCCc1c(C(=O)O)n(C)c3c-2c(Cl)ccc13 [AZD5991] (first compound max 10 µM, 7x7, partner max 1 µM)
0.771

Which combination Emax reading was recorded for the compound COc1cccc(OCCCN)c1-c1cc(Nc2cnc(C#N)cn2)n[nH]1 [Prexasertib] + C=CCn1c(=O)c2cnc(Nc3ccc(N4CCN(C)CC4)cc3)nc2n1-c1cccc(C(C)(C)O)n1 [AZD1775] (first compound max 1 µM, partner max 1 µM) ?
0.921
